Provide the recorded cell viability for the entries that follow.
System: OCI-AML2
test.protocol: cell viability relative to vehicle control; higher = less cytotoxic;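 further: after 48 h exposure read by CellTiter-Glo luminescence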
run.parameters: 10 µM; SRSF2 genotype: wt/wt
Where a name gives a salt, the structure may show the parent alone.
Numbers only, in %.

Hi! Can you tell me cell viability for each of these compounds?
1. CCOC(=O)[C@H](CCc1ccccc1)N[C@@H](C)C(=O)N1CCC[C@H]1C(=O)O [Enalapril maleate (Vasotec)]
2. CC(C)COc1ccc(CNC(=O)N(Cc2ccc(F)cc2)C2CCN(C)CC2)cc1
3. CC1(C)CC[C@]2(C(=O)O[C@@H]3O[C@H](CO)[C@@H](O)[C@H](O)[C@H]3O)CC[C@]3(C)C(=CC[C@@H]4[C@@]5(C)CC[C@H](O[C@@H]6O[C@H](C(=O)O)[C@@H](O)[C@H](O)[C@H]6O)C(C)(C)[C@@H]5CC[C@]43C)[C@@H]2C1
4. C=C1CCC[C@]2(C)Cc3occ(C)c3C[C@@H]12
5. CC[C@@H](CO)NCCN[C@@H](CC)CO [Ethambutol HCl]

Solution:
[97.8, 1.2, 111, 98, 107]

====

Tested on: MARIMO
test.protocol: cell viability relative to vehicle control; higher = less cytotoxic
run.parameters: 10 µM; SRSF2 genotype: SRSF2 P95H/wt
Structures can show the parent of a compound that is named as a salt.
attribute.measured: cell viability (%)
One number for each entry, in %.

Examples from the recorded data:
[[record]]
compound = "NC(=O)c1cccnc1 [Nicotinamide (Vitamin B3)]"
unit_name = "%"
value_reported = 107

[[record]]
compound = "CO/N=C(\\C(=O)N[C@@H]1C(=O)N2C(C(=O)O)=C(Cn3ccc(=N)n3CCO)CS[C@H]12)c1csc(N)n1 [Cefoselis sulfate]"
unit_name = "%"
value_reported = 92.6

[[record]]
compound = "Nc1ccccc1NC(=O)c1ccc(CNC(=O)OCc2cccnc2)cc1"
unit_name = "%"
value_reported = 22.1

[[record]]
compound = "CO[C@H]1[C@H](O)[C@@H](O)[C@@H](O)[C@H](O)[C@@H]1O"
unit_name = "%"
value_reported = 108

[[record]]
compound = "CCn1cc(NC(=S)Nc2cc(Cl)ccc2OC)c(C(N)=O)n1"
unit_name = "%"
value_reported = 99.1

[[record]]
compound = "CC(NC(=O)Cc1cc(F)cc(F)c1)C(=O)NC1C(=O)N(C)c2ccccc2-c2ccccc21 (centres undefined)"
unit_name = "%"
value_reported = 99.7

[[record]]
compound = "COc1cc(C2Oc3ccc(C4Oc5cc(O)cc(O)c5C(=O)C4O)cc3OC2CO)ccc1O (centres undefined)"
unit_name = "%"
value_reported = 99

[[record]]
compound = "CNCCc1ccccn1"
unit_name = "%"
value_reported = 100


Next compound, cell viability to be filled in.
Problem: Need cell viability, item NCCc1ccc(O)c(O)c1 [Dopamine hydrochloride (Inotropin)]
Solution: 88.6

====

System: K562
test.protocol: cell viability relative to vehicle control; higher = less cytotoxic
run.parameters: 10 µM; SRSF2 genotype: SRSF2 wt/wt
Where a name gives a salt, the structure may show the parent alone.
attribute.measured: cell viability (%)
Give bare numbers, in %.

[[record]]
molecule = "CCOC(=O)c1ccc(N)cc1"
value_reported = 94.2


# batch size: 7; output cell viability per entry
1. Cc1cnc(C(=O)NCCc2ccc(S(=O)(=O)NC(=O)NC3CCCCC3)cc2)cn1 [Glipizide (Glucotrol)]
2. CC(=O)Oc1ccccc1C(=O)O.CC(=O)Oc1ccccc1C(=O)O.NC(N)=O [Carbasalate Calcium]
3. OCC(CO)N[C@H]1C[C@](O)(CO)[C@@H](O)[C@H](O)[C@H]1O
4. NC(=O)c1cnc(NCCc2ccc(O)c(Cl)c2)nc1NCc1ccccc1
5. CC(=O)OCC=Cc1ccccc1 [Cinnamyl acetate]
6. C=CC(=O)Nc1cc(Nc2nccc(-c3cn(C)c4ccccc34)n2)c(OC)cc1N(C)CCN(C)C
7. COc1cccc(C=NCCN=Cc2cccc(OC)c2[O-])c1[O-].[Cl-].[Mn+3]

Solution:
91.6
102
96.6
33.3
104
3.2
97.3

Report cell viability for each item below.
1. COc1cc2c(cc1OC)-c1cc3ccc(OC)c(OC)c3c[n+]1CC2 [Palmatine chloride]
2. c1ccc2c(CC3=NCCN3)cccc2c1 [Naphazoline hydrochloride (Naphcon)]

Solution:
[75.1, 94.5]
